- ASSAYED_TARGET: P2Y purinoceptor 6 (Rattus norvegicus, UniProt Q63371)
- Sequence (Q63371 whole entry): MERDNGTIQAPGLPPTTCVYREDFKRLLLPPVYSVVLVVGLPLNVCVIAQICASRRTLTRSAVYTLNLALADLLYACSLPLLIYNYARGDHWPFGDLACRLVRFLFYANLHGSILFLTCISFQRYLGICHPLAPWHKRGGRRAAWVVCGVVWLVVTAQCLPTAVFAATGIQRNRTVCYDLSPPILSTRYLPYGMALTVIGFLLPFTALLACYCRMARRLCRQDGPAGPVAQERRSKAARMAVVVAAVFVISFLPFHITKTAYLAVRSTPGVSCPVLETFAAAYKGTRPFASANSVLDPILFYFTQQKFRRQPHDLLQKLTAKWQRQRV
- ASSAY_COMMENT: Antagonist activity at rat P2Y6 receptor expressed in human 1321N1 cells assessed as inhibition of UDP-induced intracellular calcium influx preincubated for 20 mins followed by UDP addition measured at 0.4 secs interval for 60 times by Oregon Green BAPTA-1/AM dye-based fluorescence assay
- Type: functional, cell-based
MEASUREMENT_NAME: IC50 (µM)
Number only, in µM; omit the unit.

Per the record, Cc1cccc(C(=O)Nc2ccc(S(=O)(=O)Oc3cccc([N+](=O)[O-])c3)cc2)c1 has IC50 of 6.19
